assaySystem: T1, CRF2R; note: reference of the scale not given here
T1 sequence (Q13324 whole entry, species assumed, looked up): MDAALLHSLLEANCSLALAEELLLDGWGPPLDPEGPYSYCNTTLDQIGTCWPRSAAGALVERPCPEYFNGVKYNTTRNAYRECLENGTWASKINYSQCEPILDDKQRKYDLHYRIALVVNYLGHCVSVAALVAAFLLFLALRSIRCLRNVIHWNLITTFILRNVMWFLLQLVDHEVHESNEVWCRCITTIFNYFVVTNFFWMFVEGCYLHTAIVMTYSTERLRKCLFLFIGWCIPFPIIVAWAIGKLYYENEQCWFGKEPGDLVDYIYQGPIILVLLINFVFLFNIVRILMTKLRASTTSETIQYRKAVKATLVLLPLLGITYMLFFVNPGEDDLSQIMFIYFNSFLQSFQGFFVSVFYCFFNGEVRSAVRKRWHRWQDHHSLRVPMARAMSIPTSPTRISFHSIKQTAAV
testSummary: cell-based or functional assay
Ends that are not written are not given here.
readoutName: CRF2R Emax % (%)
API: value field is a number in %; no unit string.

> print(dat)
                                     binder   readoutname  unitstext  valuereported
1  ZGPPISIDLPHALLRKMIEIEKQEKEKQQAANNRLLLDTI (C-terminal amide) [SEQ ID NO 304]  CRF2R Emax %          %           92.5

Qu. Can you share its CRF2R Emax %? I mean this binder: DNPSLSIDLPLLLLRTLLELEKTQSQRERAEQNAEIFAEV-NH2 [SEQ ID NO 323]
Ans. 100

Qu. NDDPPISIDLPYYLLRNMIEMARIENEREQAGLNAKYLAEV-NH2 [SEQ ID NO 267] , same question.
Ans. 44.2

Qu. Proceed to ZGPPISIDLPFQLLRKIIEIEKQEKEKQQAANNALLLATI (C-terminal amide) [SEQ ID NO 362]
Ans. 100

Qu. And for ZGPPISIDLPFYLLRKMIEIEKQEKEKQQAANNALLLDTI (C-terminal amide) [SEQ ID NO 230] ?
Ans. 100
